- assay.target: vesamicol receptor
- assay.comment: Vesamicol receptor binding ([3H]vesamicol)
- run.conditions: conditions of this assay; read-out: dissociation constant (kd)

compound	Kd (nM)
O[C@@H]1CCCC[C@H]1N1CCC(c2ccccc2)CC1 [(-)-vesamicol, reference compound]	1

----------
- assay.target: vesamicol receptor
- assay.comment: Vesamicol receptor binding ([3H]vesamicol)
- run.conditions: [3H]vesamicol approx. 5 nM, 24 h equilibration; racemates; read-out: Ki (Inhibitory potency of Spirovesamicols)
pKi: −log10 of the molar value.
Note to self: values exactly at 9 are Satisfied. So pKi at or above 9 is Satisfied, below is Not satisfied.

molecule	classification
OC1CCN(Cc2cccc(I)c2)CC1N1CCC2(C=Cc3ccccc32)CC1 (centres unmarked) [Compound 11d]	Satisfied
OC1CCN(Cc2ccccc2I)CC1N1CCC2(CCCc3ccccc32)CC1 (centres unmarked) [Compound 13c]	Not satisfied
OC1Cc2ccccc2CC1N1CCC2(C=Cc3ccc(Br)cc32)CC1 (centres unmarked) [Compound 17]	Satisfied
OC1Cc2ccccc2CC1N1CCC2(C=Cc3c(Br)cccc32)CC1 (centres unmarked) [Compound 15]	Satisfied
OC1CCN(Cc2cccc(I)c2)CC1N1CCC2(CCCc3ccccc32)CC1 (centres unmarked) [Compound 13d]	Satisfied
OC1Cc2ccccc2CC1N1CCC2(C=Cc3ccccc32)CC1 (centres unmarked) [Compound 11b]	Satisfied
OC1CCN(Cc2ccc(F)cc2)CC1N1CCC2(CCCc3ccccc32)CC1 (centres unmarked) [Compound 13f]	Not satisfied
OC1Cc2ccccc2CC1N1CCC2(CC1)C(Br)=Cc1ccccc12 (centres unmarked) [Compound 14]	Satisfied
OC1CCCCC1N1CCC2(CCCc3ccccc32)CC1 (centres unmarked) [Compound 13a]	Not satisfied
OC1Cc2ccccc2CC1N1CCC2(CCCc3ccccc32)CC1 (centres unmarked) [Compound 13b]	Not satisfied

----------
Catalogue of Ki values
- assay.target: vesamicol receptor
- assay.comment: Vesamicol receptor binding ([3H]vesamicol)
- run.conditions: [3H]vesamicol approx. 5 nM, 24 h equilibration; racemates; read-out: Ki (Inhibitory potency of Spirovesamicols)

compound	display.unit	Ki
OC1CCN(Cc2ccccc2I)CC1N1CCC2(C=Cc3ccccc32)CC1 (stereo not shown) [Compound 11c]	nM	0.798
OC1Cc2ccccc2CC1N1CCC2(C=Cc3cc(Br)ccc32)CC1 (stereo not shown)	nM	1.4
OC1CCCCC1N1CCC2(C=Cc3ccccc32)CC1 (stereo not shown) [Compound 11a]	nM	0.622
OC1CCCCC1N1CCC(c2ccccc2)CC1 (stereo not shown)	nM	1

From: patent US5554752A
